Assignment: determine reported IC50 for the given compounds.
# measuredTarget: Rac GTPase-activating protein 1 (Homo sapiens, UniProt Q9H0H5)
# Sequence (Q9H0H5 whole entry): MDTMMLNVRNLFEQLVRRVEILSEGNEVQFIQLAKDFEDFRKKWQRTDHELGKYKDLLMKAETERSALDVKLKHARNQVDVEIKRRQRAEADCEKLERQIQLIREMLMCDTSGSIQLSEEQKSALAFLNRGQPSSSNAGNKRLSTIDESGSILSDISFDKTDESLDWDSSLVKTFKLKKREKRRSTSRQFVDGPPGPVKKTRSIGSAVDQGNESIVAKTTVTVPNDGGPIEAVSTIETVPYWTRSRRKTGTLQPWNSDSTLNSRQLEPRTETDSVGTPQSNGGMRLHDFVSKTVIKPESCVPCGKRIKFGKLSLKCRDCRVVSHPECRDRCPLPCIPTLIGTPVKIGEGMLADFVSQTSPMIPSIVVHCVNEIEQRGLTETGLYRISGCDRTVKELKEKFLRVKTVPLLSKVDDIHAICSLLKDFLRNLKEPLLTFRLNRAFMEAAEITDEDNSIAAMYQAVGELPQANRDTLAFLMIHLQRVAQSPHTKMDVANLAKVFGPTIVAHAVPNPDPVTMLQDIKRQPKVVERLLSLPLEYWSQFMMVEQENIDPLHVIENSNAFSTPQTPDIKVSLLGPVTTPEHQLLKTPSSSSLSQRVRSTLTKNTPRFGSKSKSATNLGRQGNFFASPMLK
# assayOverview: MgcRacGAP GTPase-activating activity inhibitors, confirmation, biochemical, ADP Hunter fluorescence, primary and confirmatory (AID 624330)
# Format: functional
The source made the active and inactive calls.

Query string: Quick one: IC50 of Oc1ccc(/C=N/NC(=S)N2CCOCC2)cc1 ?
Result string: 63.7 µM (active)

Query string: What does the record list as IC50 for COc1ccc(N2CCN(c3ncccc3C#N)CC2)cc1 ?
Result string: 157 µM (active)

Query string: Any idea what its IC50 is? The compound is CCOc1ccc2c(ccc(/C=C/c3cc(C)c4cccnc4c3O)[n+]2C)c1
Result string: 34.5 µM (active)

Query string: Any idea what its IC50 is? The compound is COc1cc(/C=C2\SC(N3CCC(C)CC3)=NC2=O)ccc1O
Result string: 16.3 µM (active)

Query string: # get_value(readout='IC50', item= O=c1c(-c2ccccc2Cl)c[nH]n1-c1ccccc1 )
Result string: 97.4 µM (active)

Query string: Quick one: IC50 for CC(/C=N/n1c(S)nnc1-c1ccco1)=C\c1ccccc1 ?
Result string: 108 µM (active)

Query string: // returns reported IC50 for input COc1cc(/C(C)=N/NC(=O)Cc2c(C)n[nH]c2O)ccc1O
Result string: 69.8 µM (active)

Query string: Data request, read-out IC50, for CSC1=NN(c2ccccc2)CN(c2ccccc2)N1C
Result string: 75.6 µM (active)

Query string: Which IC50 reading was recorded for the compound Cc1cc(-c2ccccc2)nc(N/N=C/c2ccc(N(C)C)cc2)n1 ?
Result string: 74.7 µM (active)

Query string: Reported IC50 for N#CC(C#N)=C1C=CC=CN1/C(=C\c1ccco1)C(=O)c1ccc(Br)cc1 : what is it?
Result string: 88.7 µM (active)

Query string: Which measured IC50 value corresponds to COc1cccc(CN2CCN(C(=O)c3ccco3)CC2)c1OC ?
Result string: 163 µM (active)

Query string: Any idea what its IC50 is? The compound is C#CCOCCOCCOCCNc1nc(N2CCN(C(=O)[C@H](CCCCN)n3cc([C@@H](N)C(C)CC)nn3)CC2)nc(N2CCN(C(=O)[C@H](CCCCN)n3cc([C@@H](N)CC(C)C)nn3)CC2)n1 (stereo partly drawn)
Result string: 114 µM (active)

Query string: Given the compound O=C1CCCC(O)=C1/C=N/c1ccc(O)cc1 , what is its reported IC50?
Result string: 16.7 µM (active)

* * *

Field: AC50. Provide a value for each of the molecules that follow.

Query string: Look up AC50 with UniProt:P05177 for this molecule: Cc1c(Br)cc(C(=O)NC2CCCCC2)c(C)c1C
Sequence (P05177 whole entry): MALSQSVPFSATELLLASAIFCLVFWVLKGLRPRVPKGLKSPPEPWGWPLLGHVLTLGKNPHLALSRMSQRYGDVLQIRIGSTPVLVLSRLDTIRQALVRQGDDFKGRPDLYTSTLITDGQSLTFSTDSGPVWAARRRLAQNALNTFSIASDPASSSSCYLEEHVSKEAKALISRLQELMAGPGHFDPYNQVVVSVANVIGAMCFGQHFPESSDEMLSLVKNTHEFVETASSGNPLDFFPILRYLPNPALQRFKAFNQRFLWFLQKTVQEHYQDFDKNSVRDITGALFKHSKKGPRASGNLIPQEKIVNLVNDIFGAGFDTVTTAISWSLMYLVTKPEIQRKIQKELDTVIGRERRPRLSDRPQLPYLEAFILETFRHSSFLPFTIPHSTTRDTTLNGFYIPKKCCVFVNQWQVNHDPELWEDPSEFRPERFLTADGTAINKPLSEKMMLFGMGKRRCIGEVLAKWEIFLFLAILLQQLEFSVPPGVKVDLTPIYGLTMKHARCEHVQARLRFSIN
Result string: 3.55 µM (inconclusive)

Query string: // map COc1ccc2[nH]cc(CCNc3ncnc4ccc(-c5ccccc5CN(C)C)cc34)c2c1 to recorded AC50 (system: UniProt:P05177)
Result string: 31.6 µM (inconclusive)

Query string: Give the reported AC50 for CN(C)C(=O)c1ccc(-c2nc(NCc3cccnc3)c3ccccc3n2)cc1 (system: UniProt:P05177).
Result string: 10 µM (inconclusive)

* * *

# measuredTarget: FAD-linked sulfhydryl oxidase ALR (Homo sapiens, UniProt P55789)
# Sequence (P55789 whole entry): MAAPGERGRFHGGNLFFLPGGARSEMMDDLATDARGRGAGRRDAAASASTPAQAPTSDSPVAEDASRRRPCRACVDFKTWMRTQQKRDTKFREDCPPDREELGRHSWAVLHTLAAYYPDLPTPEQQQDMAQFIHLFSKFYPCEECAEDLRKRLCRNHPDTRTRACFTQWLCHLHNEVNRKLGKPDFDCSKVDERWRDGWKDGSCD
# assayOverview: inhibitors of human ALR sulfhydryl oxidase, dose response, biochemical, H2O2 detection, luminescence, cherry-pick (AID 493248)
Calls of active or inactive are those of the source.
Provide the recorded AC50 for the entries that follow.

Query string: Observed AC50 on FAD-linked sulfhydryl oxidase ALR (Homo sapiens, UniProt P55789) for C/C(=N\Nc1ccc(C(=O)O)cc1)c1ccc2c(c1)Nc1ccccc1S2 , please.
Result string: 13 nM (active)

Query string: Find AC50 (FAD-linked sulfhydryl oxidase ALR (Homo sapiens, UniProt P55789)) for the entry CCN(CCNC(=O)C1CCN(Cc2nc(-c3ccc(Cl)cc3)oc2C)CC1)c1ccccc1
Result string: 4080 nM (active)

Query string: # get_value(readout= AC50, system= FAD-linked sulfhydryl oxidase ALR (Homo sapiens, UniProt P55789)) for COc1cc(/C=C2\SC(N3CCC(C)CC3)=NC2=O)ccc1O
Result string: 929 nM (active)

Query string: API: value(readout= AC50, system= FAD-linked sulfhydryl oxidase ALR (Homo sapiens, UniProt P55789), query= Cc1nc2cc(-c3nc4cc(N)ccc4o3)ccc2[nH]1 )
Result string: 1720 nM (active)

Query string: Lab request: please report AC50 under test system FAD-linked sulfhydryl oxidase ALR (Homo sapiens, UniProt P55789) for Cc1cc(C)c(S(=O)(=O)Nc2ccc(O)cc2)cc1C
Result string: 926 nM (active)
